Taken from the supplement of paper PMC9170038.

- System: MS2 coat protein
- assay summary: apparent KD of MS2 coat protein; designed switch direction (-1 OFF switch, 1 ON switch): -1; higher = weaker reporter binding
- test context: Eterna round: R95; input ligand: FMN 200 uM
I'd appreciate it if you could supply apparent KD of MS2 coat protein values for the items below.
One number for each entry, in nM.

Solved cases (3 shown):
macromolecule sequence	target system	apparent KD of MS2 coat protein, nM
AGGGAUAAAGGAUAUACAUGAGGAUCACCCAUGUUGAGGAAGGUUAGAUGAGGAGUAAGUAGAAGGUUAGACGA [JR_Exclu3_Sub088] (puzzle: Exclusion 3)	MS2 coat protein	45.7
AAAAUGUCAGGAUAUACGAAACAAAACAAAACAAAACAAAAGUAGAAGGGACAUGAGGAUCACCCAUGUAAGAA [Exclusion 4 #2] (puzzle: Exclusion 4)	MS2 coat protein	49.6
UGUACUAUGCGAGCUGACUUGCGUAGUGCAGCAGGUGGAACAUGAGGAUCACCCAUGUCCUCAUUUGCUCGUCUUAU [SL-sv3-2.03 JL mod] (puzzle: Sensor v3, turn-off variant 2)	MS2 coat protein	39

I would be grateful if you could provide apparent KD of MS2 coat protein for each of the following entries.
1. GCAGGCGUCUUGGCUCGUCUUAUUUUGAGAGGAUUGAUAACAUGAGGAUCACCCAUGUUUGUGGGAGAGUUGCAGUG [JR_SV3TOV2_Sub016] (puzzle: Sensor v3, turn-off variant 2)
2. AGAAAGUCAGGAUAUACAUGAGGAUCACCCAUGUAAAGAAAAGAAAGGGAAGGAAGAGGUAGAAGGGACAAGAA [JR_Exclu3_Sub031] (puzzle: Exclusion 3)

Result:
1: 108; 2: 26.5

* * *

- Tested on: MS2 coat protein
- assay summary: apparent KD of MS2 coat protein, switch ON state; designed switch direction (-1 OFF switch, 1 ON switch): 1; higher = weaker reporter binding
- test context: FMN input: 0 or 200 uM; Eterna round: R93 (includes R88 designs)
measure: apparent KD of MS2 coat protein (nM)
Answers are plain numbers, in nM.

I would be grateful if you could provide apparent KD of MS2 coat protein for each of the following entries.
1. CGCCAAUUGGCACAGGAUAUGAGCAUGCUCACAUGAGGAUCACCCAUGUGAUUAACAACGCAAUAUCAGAAGGGUGCCCUCAUCA [Leonon]
2. UGAAGACAUGAGGAUCACCCAUGUGGGAAUAUGGGAGGAUAUACAAAGACGAGAGUCAGAGUAGAAGGCCUAGGAC [salish99-ss1-98]
3. AAGAAACAUGAGGAUCACCCAUGUAAAUAAAACACAGGAUAUCGAAUAUGGGAGAUUUAACGAGAAGGGUGAAGAA [Meechl MS2 SS1 3]
4. CGAGAGGAGAGAGAGGAUAUCCAAAGGAAAACAUGAGGAUCACCCAUGUAGAAGGUAGGAGAUUGGGAGAAGGCUCAAGAAGAAG [salish99-ss2-159]

Result:
[50.3, 47.9, 36, 18.2]

I would be grateful if you could provide apparent KD of MS2 coat protein for each of the following entries.
1. AGAAAUAAAAGAGAGGAUAUCCAAAAUAAAACAUGAGGAUCACCCAUGUGAAACAAAACAAAAUGGGAGAAGGCUCAAAAUAAGA [Topaz 17]
2. CUGGACCUAGGAUAGGAUAUGUGAAUAAUUACAUGAGGAUCACCCAUGUCCAUUUAUAUGGGAACAUAGAAGGGUUUUGGUUAAG [Mat - Same state - Malcolm Mod - D147]

Result:
1: 15.7; 2: 103

* * *

- Test system: K4 kissing-loop RNA reporter;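 note: bound reporter read as fluorescence of individual clusters on recovered sequencing chips by microscopy, with normalized cluster intensities fitted with a binding model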
- assay summary: apparent KD of K4 kissing-loop reporter; higher = weaker reporter binding
- test context: Eterna round: R107; input ligand: none
I'd appreciate it if you could supply apparent KD of K4 kissing-loop reporter values for the items below.
Numbers only, in nM.

macromolecule sequence	apparent KD of K4 kissing-loop reporter / nM
AUAUCUAGAGUGAUGUUCUAGUAAGCUGAAGGAGCGGACGAAAGUCCAGGUAGGUCGCAGUGUUUUUACACCUCAUGUGUAGGAG [KL-SSArg-A7 #analogue]	107
AUAAAUUUGUAGUGAUGUUGCAAGUUAGUCAAGGAUAUCAGGAAACUGAGAAGGUGAUAUCUCCUUUACUUGCAACUAGGAGGAG [KL-SSFMN-A11]	91
UGCAUCAGUGCCUUUGAUCUAUUCCUGGAUACCAGAUCCUACUUGAUCCCUUGGCAGCCAUACGGGAGUGAUGUUCCAUGUAUCC [theeternabot_exclusion_KL_Theo_A_43]	209
UGUAAGUGUCAGCGAGUGAUGUUCGACGAUACCAGACUCGAUAGAGUCCCUUGGCAGCGUAAUGCAUGCCAAACUGGCACAUACU [#SwitchBubble 11 #K4Early]	560

I would be grateful if you could provide apparent KD of K4 kissing-loop reporter for each of the following entries.
1. GCAGUGAUGUUGCUGGUGUGCAGUGGUAGUCGAGGACCGGUACGGCCGCCACUCGGUGAGAACCUGCUAAUACAUCGAUAAGUGA [XVIII]
2. UAAGAAUAACAUGCAGUGAUGUUGCAUGUACGAGGACCGGUACGGCCGCCACUCGAGUCCUCGAACAUGCACCGAGGAAUAACAA [(H,1)-(H,2)-(Trp1)-(Trp2)-(T)'-(H)'-(T)'']

Result:
738
116

* * *

I'd appreciate it if you could supply apparent KD of MS2 coat protein values for the items below.
- Tested on: MS2 coat protein
- assay summary: apparent KD of MS2 coat protein; designed switch direction (-1 OFF switch, 1 ON switch): -1; higher = weaker reporter binding
- test context: input ligand: FMN 200 uM
Numbers only, in nM.

Solved cases (5 shown):
macromolecule sequence	test value
AAACGGGUGUCCUCGUUUUCAACAUGAGGAUCACCCAUGUUCGAGGAUAUCCGAUAAGCUCUUCAGGAGAAGGCGAACAUAAAA [Eninenat] (Eterna round: R96, puzzle: Exclusion NG 3)	14.7
GUGUAACAUGAGGAUCACCCAUGUCAGGAUAUCCGCUUUAACUAAAUAAAUAAAUAGUGGAGAAGGGACAGCGC [-13.9, -13.37 kcal, 36% A] (Eterna round: R97, puzzle: Exclusion 1)	55.7
UCUCGCAGGCAAGGAUAUCCUACAUUGUUCUGGCCCGGGCAUGUUACAUGAGGAUCACCCAUGUGGGAGAAGGUGCGCCACGGC [Design 33] (Eterna round: R96, puzzle: Exclusion NG 2)	196
CCCACGCACCAAGGAUAUGUUCCGCACAUGAGGAUCACCCAUGUGGCCAGCGAUUCUGUGUGAGAACAGAAGGUGGUUAUGUUA [Eternabot solution 41] (Eterna round: R96, puzzle: Exclusion NG 2)	468
AAAACAAGCAUAAGAUCCCACAUGAGGAUCACCCAUGUGCUCGUCUUAUAAAAGGUUUCGACGAAAACGUCGAGACC [Eli 91 v30] (Eterna round: R97, puzzle: Sensor, turn-off variant 1)	29.6

I would be grateful if you could provide apparent KD of MS2 coat protein for each of the following entries.
1. AUAUUAAUAGUAAGGAUAUGCGUAUAUAUAAUUAUGCAGAAGGUACAUGAGGAUCACCCAUGUAUUAAUGUAUA [LRO-BmodExc4-01-Oppy's Opus] (Eterna round: R97, puzzle: Brourd's mod of Exclusion 4)
2. UAUUAGCAAGUAAGGUCCCACAUGAGGAUCACCCAUGUGCUCGUCUCCUCAGGUACGGAGCGGAAGCUCCCGAUAUG [Sensor-V1 #94] (Eterna round: R97, puzzle: Sensor, turn-off variant 1)
3. CGGAUGUCAGGAUAUCGUGCAUACAACGAAAGUUCUAUGUGCGAGAAGGGACAUGAGGAUCACCCAUGUUUACG [Omei Ex4 A11] (Eterna round: R97, puzzle: Exclusion 4)
4. UGUCAGAUGGUAGGAUAUCCGUAUCGCGUGUCCCUUUCCUAACAUGAGGAUCACCCAUGUCGGUGGGAGAAGGGCCGUAUGGUG [salish99_ExNG02_R04_037] (Eterna round: R96, puzzle: Exclusion NG 2)

Result:
16.5
87
206
12.9

* * *

- Test system: MS2 coat protein
- assay summary: apparent KD of MS2 coat protein, switch ON state; designed switch direction (-1 OFF switch, 1 ON switch): -1; higher = weaker reporter binding
- test context: FMN input: 0 or 200 uM; Eterna round: R93 (includes R88 designs)
Entry class follows apparent KD of MS2 coat protein: Low (below 0.03 µM), Medium (0.03 µM to below 0.05 µM), High (0.05 µM or more)

Q: State the band of AAAGAUGGAGGAUAUACAUGAGGAUCACCCAUGUAAAAAAAAAAGAGGGAAAAAGAAAGUAGAAGGCCACAAAA [Ex 3 May 44]
Result: High

Q: State the band of UGGGAGUCAGGAUAUACGAACAUGUCGCCAGAUGUCAAGGUACAUGAGGAUCACCCAUGUAGAAGGGAGGAGAA [salish99-Ex2-30(!)]
Result: High

Q: State the band of AAAGGAUCAGGAUAUGUGUGGAAAAAGUGUAUCCAAAAAAAACAUGAGGAUCACCCAUGUAGAAGGGAUCCAAA [Mod 2 of Normal (20/19) by Nando, Round 1]
Result: High

Q: State the band of AAAUAGUUAGGAUAUACAUGAGGAUCACCCAUGUGGACUUAUGGAGAAUAAUUUAAUGGUAGAAGGGACUAAAA [EX2 Malc#26]
Result: High
